system: Klebsiella pneumoniae; assay: Antibacterial activity against Klebsiella pneumoniae ATCC 13883 by serial dilution method; assay type: functional
measurement_kind: MIC (µg/mL)

// known answers, use as guide
Problem: What measured MIC is associated with Nc1nc2c(ncn2-c2ccc(S(=O)(=O)N3CCCCC3)cc2F)c(=O)[nH]1 on Klebsiella pneumoniae?
Result: 32

Problem: What measured MIC is associated with CC1CCN(S(=O)(=O)c2ccc(-n3cnc4c(=O)[nH]c(N)nc43)c(F)c2)CC1 on Klebsiella pneumoniae?
Result: 32

Problem: What measured MIC is associated with CCn1cc(C(=O)O)c(=O)c2cc(F)c(N3CCNCC3)cc21 [NORFLOXACIN] on Klebsiella pneumoniae?
Result: 16

P: COc1cc(S(=O)(=O)N2CCC(C)CC2)ccc1-n1cnc2c(=O)[nH]c(N)nc21
Q: CC1CCN(S(=O)(=O)c2ccc(-n3cnc4c(=O)[nH]c(N)nc43)c(Cl)c2)CC1
Problem: For the two items P and Q , which reports the higher MIC value? Give the label of your selection.
Result: P
(P: 32 µg/mL, Q: 16 µg/mL)

Data origin, for the record: ChEMBL document CHEMBL1140570
